system: CAL-12T; experiment: relative viability (nuclei count vs DMSO), 5 days (fraction); higher = more cells survive; details: first compound 0.01 µM
Below: a set of entries, each annotated with reported relative viability.
Response field accepts a number only; no unit should be typed.

- MOLECULE: "CCN(CC)CCCCNc1ncc2cc(-c3cc(OC)cc(OC)c3)c(NC(=O)NC(C)(C)C)nc2n1 + C[C@@H](Oc1cc(-c2cnn(C3CCNCC3)c2)cnc1N)c1c(Cl)ccc(F)c1Cl [Crizotinib] (partner 1 µM)"
  MEASUREMENT TARGET: "CAL-12T"
  relative viability: 0.809

Returns the measured relative viability for the input molecule. Input: O=c1cc(N2CCOCC2)oc2c(-c3cccc4c3sc3ccccc34)cccc12 + Cc1cc(Nc2cc(N3CCN(C)CC3)nc(Sc3ccc(NC(=O)C4CC4)cc3)n2)n[nH]1 [Tozasertib] (partner 0.1 µM)
0.354

Reported relative viability, molecule CCN(CC)CCCCNc1ncc2cc(-c3cc(OC)cc(OC)c3)c(NC(=O)NC(C)(C)C)nc2n1 + CC1(C)CCC(c2ccc(Cl)cc2)=C(CN2CCN(c3ccc(C(=O)NS(=O)(=O)c4ccc(N[C@H](CCN5CCOCC5)CSc5ccccc5)c(S(=O)(=O)C(F)(F)F)c4)cc3)CC2)C1 [Navitoclax] (partner 0.5 µM) : ____
1.43

---

test system: LC-2-ad; experiment: relative viability (nuclei count vs DMSO), 5 days (fraction); higher = more cells survive; settings: first compound 1 µM
Quick reference for relative viability among some compounds
Keep it simple and answer with nothing but the number.

Solved entries:
- COMPOUND: "CCN(CC)CCCCNc1ncc2cc(-c3cc(OC)cc(OC)c3)c(NC(=O)NC(C)(C)C)nc2n1 + CC(C)C[C@H](NC(=O)[C@H](Cc1ccccc1)NC(=O)c1cnccn1)B(O)O [Bortezomib] (partner 0.002 µM)"
  EXPERIMENTAL READOUT: "relative viability"
  ENDPOINT VALUE: 1
- COMPOUND: "O=c1cc(N2CCOCC2)oc2c(-c3cccc4c3sc3ccccc34)cccc12 + O=C(CCCCCCC(=O)Nc1ccccc1)NO [Vorinostat] (partner 1 µM)"
  EXPERIMENTAL READOUT: "relative viability"
  ENDPOINT VALUE: 0.741
- COMPOUND: "CCN(CC)CCCCNc1ncc2cc(-c3cc(OC)cc(OC)c3)c(NC(=O)NC(C)(C)C)nc2n1 + COc1cccc2cc(-c3nc([C@H]4CC[C@H](C(=O)O)CC4)n4ncnc(N)c34)[nH]c12 [OSI-027] (partner 0.5 µM)"
  EXPERIMENTAL READOUT: "relative viability"
  ENDPOINT VALUE: 0.75
- COMPOUND: "O=c1cc(N2CCOCC2)oc2c(-c3cccc4c3sc3ccccc34)cccc12 + O=C(c1cc(Cc2n[nH]c(=O)c3ccccc23)ccc1F)N1CCN(C(=O)C2CC2)CC1 [Olaparib] (partner 8 µM)"
  EXPERIMENTAL READOUT: "relative viability"
  ENDPOINT VALUE: 0.662

The record that follows has no relative viability shown yet.
Form entry - test system: LC-2-ad; read-out: relative viability; compound: CCN(CC)CCCCNc1ncc2cc(-c3cc(OC)cc(OC)c3)c(NC(=O)NC(C)(C)C)nc2n1 + NC(=O)Nc1cc(-c2cccc(F)c2)sc1C(=O)N[C@H]1CCCNC1 [AZD7762] (partner 0.2 µM)
0.815

---

test system: EKVX; experiment: relative viability (nuclei count vs DMSO), 5 days (fraction); higher = more cells survive; conditions: first compound 0.8 µM
Define the label as True when relative viability is strictly less than 0.5 and as False in all remaining cases.

Take a look at these entries with their results.
- MOLECULE: "O=c1cc(-c2cccc3c2Sc2ccccc2S3)oc(N2CCOCC2)c1 + Cc1cc(Nc2cc(N3CCN(C)CC3)nc(Sc3ccc(NC(=O)C4CC4)cc3)n2)n[nH]1 [Tozasertib] (partner 0.1 µM)"
  QUALITATIVE LABEL: "True"
- MOLECULE: "O=c1cc(-c2cccc3c2Sc2ccccc2S3)oc(N2CCOCC2)c1 + N=C(N)NC(=N)NCCc1ccccc1 [Phenformin] (partner 250 µM)"
  QUALITATIVE LABEL: "True"
- MOLECULE: "COc1nc(C)cnc1NS(=O)(=O)c1cccnc1-c1ccc(-c2nnco2)cc1 [Zibotentan] + Nc1nc2[nH]cc(CCc3ccc(C(=O)N[C@@H](CCC(=O)O)C(=O)O)cc3)c2c(=O)[nH]1 [Pemetrexed] (partner 0.2 µM)"
  QUALITATIVE LABEL: "True"
- MOLECULE: "COc1nc(C)cnc1NS(=O)(=O)c1cccnc1-c1ccc(-c2nnco2)cc1 [Zibotentan] + C[C@@H](Oc1cc(-c2cnn(C3CCNCC3)c2)cnc1N)c1c(Cl)ccc(F)c1Cl [Crizotinib] (partner 1 µM)"
  QUALITATIVE LABEL: "False"

Is 0.5 strictly greater than the molecule's reported relative viability? molecule: COc1nc(C)cnc1NS(=O)(=O)c1cccnc1-c1ccc(-c2nnco2)cc1 [Zibotentan] + Cc1nc(NC(=O)N2CCC[C@H]2C(N)=O)sc1-c1ccnc(C(C)(C)C(F)(F)F)c1 [Alpelisib] (partner 2 µM)
False

---

tested on: HCC-78; assay: relative viability (nuclei count vs DMSO), 5 days (fraction); higher = more cells survive; details: first compound 0.8 µM
EXPERIMENTAL READOUT: relative viability
Number, no unit, nothing else.

- COMPOUND: "O=c1cc(-c2cccc3c2Sc2ccccc2S3)oc(N2CCOCC2)c1 + CC1(C)CCC(c2ccc(Cl)cc2)=C(CN2CCN(c3ccc(C(=O)NS(=O)(=O)c4ccc(N[C@H](CCN5CCOCC5)CSc5ccccc5)c(S(=O)(=O)C(F)(F)F)c4)cc3)CC2)C1 [Navitoclax] (partner 0.5 µM)"
  ENDPOINT VALUE: 0.767

Fill blank: measured relative viability of the compound O=c1cc(-c2cccc3c2Sc2ccccc2S3)oc(N2CCOCC2)c1 + CC(C)C[C@H](NC(=O)[C@H](Cc1ccccc1)NC(=O)c1cnccn1)B(O)O [Bortezomib] (partner 0.002 µM) is ____.
0.355

---

tested on: NCI-H460; assay: relative viability (nuclei count vs DMSO), 5 days (fraction); higher = more cells survive; conditions: first compound 1 µM
This listing pairs molecules with measured relative viability.
Keep it simple and answer with nothing but the number.

Entry O=c1cc(N2CCOCC2)oc2c(-c3cccc4c3sc3ccccc34)cccc12 + C[C@@H](Oc1cc(-c2cnn(C3CCNCC3)c2)cnc1N)c1c(Cl)ccc(F)c1Cl [Crizotinib] (partner 1 µM) : reported relative viability = ?
0.922

Sample CCN(CC)CCCCNc1ncc2cc(-c3cc(OC)cc(OC)c3)c(NC(=O)NC(C)(C)C)nc2n1 + N=C(N)NC(=N)NCCc1ccccc1 [Phenformin] (partner 250 µM) — what was its relative viability?
0.329

Would you kindly share the measured relative viability for CCN(CC)CCCCNc1ncc2cc(-c3cc(OC)cc(OC)c3)c(NC(=O)NC(C)(C)C)nc2n1 + C[C@@H](Oc1cc(-c2cnn(C3CCNCC3)c2)cnc1N)c1c(Cl)ccc(F)c1Cl [Crizotinib] (partner 1 µM) ?
0.797

So what does the record say about relative viability for CCN(CC)CCCCNc1ncc2cc(-c3cc(OC)cc(OC)c3)c(NC(=O)NC(C)(C)C)nc2n1 + CC(=O)Nc1cccc(-n2c(=O)n(C3CC3)c(=O)c3c(Nc4ccc(I)cc4F)n(C)c(=O)c(C)c32)c1 [Trametinib] (partner 0.02 µM) ?
0.062

---

Here, each record is paired with measured relative viability data.
tested on: HCC-827; test: relative viability (nuclei count vs DMSO), 5 days (fraction); higher = more cells survive; conditions: first compound 0.03162 µM
Reply with the value as a number alone.

Sample records with relative viability:
- MOLECULE: "CCN(CC)CCCCNc1ncc2cc(-c3cc(OC)cc(OC)c3)c(NC(=O)NC(C)(C)C)nc2n1 + NC(=O)Nc1cc(-c2cccc(F)c2)sc1C(=O)N[C@H]1CCCNC1 [AZD7762] (partner 0.2 µM)"
  relative viability: 0.249
- MOLECULE: "O=c1cc(N2CCOCC2)oc2c(-c3cccc4c3sc3ccccc34)cccc12 + N=C(N)NC(=N)NCCc1ccccc1 [Phenformin] (partner 250 µM)"
  relative viability: 0.391

Data request, read-out relative viability, for O=c1cc(N2CCOCC2)oc2c(-c3cccc4c3sc3ccccc34)cccc12 + COc1cc2c(Oc3ccc(NC(=O)C4(C(=O)Nc5ccc(F)cc5)CC4)cc3F)ccnc2cc1OCCCN1CCOCC1 [Foretinib] (partner 0.25 µM)
1.11

So what's the measured relative viability for this one? O=c1cc(N2CCOCC2)oc2c(-c3cccc4c3sc3ccccc34)cccc12 + CC(C)C[C@H](NC(=O)[C@H](Cc1ccccc1)NC(=O)c1cnccn1)B(O)O [Bortezomib] (partner 0.002 µM)
0.976

// lookup relative viability for O=c1cc(N2CCOCC2)oc2c(-c3cccc4c3sc3ccccc34)cccc12 + Cc1nc(NC(=O)N2CCC[C@H]2C(N)=O)sc1-c1ccnc(C(C)(C)C(F)(F)F)c1 [Alpelisib] (partner 2 µM)
0.931

From: the supplement of paper PMC10307832
